Origin of values: patent US7138411B2

assay.target: UniProtKB P23219
measured.attribute: IC50 (µM)

Examples from the recorded data:
molecule	IC50 [µM]
CSc1ccc2c(c1)C=C(C(=O)O)C(C(F)(F)F)O2 (stereo not drawn) [Example 2]	5
O=C(O)C1=Cc2cc(C(F)F)ccc2OC1C(F)(F)F (stereo not drawn) [Example 81]	1.6
O=C(O)C1=Cc2cc(Cl)ccc2O[C@@H]1C(F)(F)F [Example 66]	16.9
O=C(O)C1=Cc2cc(C#Cc3ccccc3)ccc2NC1C(F)(F)F (stereo not drawn) [Example 211]	3.8
O=C(O)C1=Cc2c(cc(Cl)c(Cl)c2Cl)OC1C(F)(F)F (stereo not drawn) [Example 83]	1.4

a. O=C(O)C1=Cc2cc(Oc3ccc(C(F)(F)F)cc3)cc(Cl)c2OC1C(F)(F)F (stereo not drawn) [Example 105]
b. O=C(O)C1=Cc2cc(C(=O)c3ccc(O)cc3)ccc2OC1C(F)(F)F (stereo not drawn) [Example 98]
c. O=C(O)C1=Cc2cc(Oc3ccc(Cl)cc3)ccc2OC1C(F)(F)F (stereo not drawn) [Example 104]
d. O=C(O)C1=Cc2cc(Cl)c(Oc3cccnc3)cc2OC1C(F)(F)F (stereo not drawn) [Example 201]
Exercise: Sort low-to-high on IC50, please. Form entry: labels listed in requested order.
Key: a, c, b, d

* * *

Quick list: melting point per entry.

Exercise: Need melting point, item N#Cc1ccc2c(c1)C=C(C(=O)O)C(C(F)(F)F)O2 (stereo not drawn)
Key: 185.1 to 186.1 °C

Exercise: Same again, this time with O=C(O)C1=Cc2cc(OC(F)(F)F)ccc2NC1C(F)(F)F (stereo not drawn)
Key: 127.7 to 128.9 °C

Exercise: Same again, this time with O=C(O)C1=Cc2c(ccc3ccccc23)OC1C(F)(F)F (stereo not drawn)
Key: 244.7 to 249.8 °C

Exercise: Same again, this time with COc1ccc(Oc2cc3c(cc2Cl)C=C(C(=O)O)C(C(F)(F)F)O3)cc1 (stereo not drawn)
Key: 213.2 to 214.3 °C

Exercise: Same again, this time with O=C(O)C1=Cc2cc3c(cc2OC1C(F)(F)F)OCO3 (stereo not drawn)
Key: 245.8 to 247.8 °C

Exercise: Same again, this time with CC(C)c1ccc2c(c1)OC(C(F)(F)F)C(C(=O)O)=C2 (stereo not drawn)
Key: 158.3 to 159.7 °C

Exercise: Same again, this time with O=C(O)C1=Cc2cc(Cl)cc(/C=N/O)c2OC1C(F)(F)F (stereo not drawn)
Key: 246.9 to 247.9 °C

Exercise: Same again, this time with O=C(O)C1=Cc2cc(Cl)cc(-c3cccs3)c2OC1C(F)(F)F (stereo not drawn)
Key: 257.5 to 258.8 °C

Exercise: Same again, this time with COc1ccc(Oc2ccc3c(c2)C=C(C(=O)O)C(C(F)(F)F)O3)cc1 (stereo not drawn)
Key: 181.7 to 182.9 °C

* * *

measured.attribute: melting point

Examples from the recorded data:
compound	melting point
O=C(O)C1=Cc2cccc(Cl)c2OC1C(F)(F)F (stereo not drawn) [Example 14]	224.5 to 225.6 °C
O=C(O)C1=Cc2cc(Cl)cc(C#CCCCCl)c2OC1C(F)(F)F (stereo not drawn) [Example 118]	154.4 to 156.4 °C
O=C(O)C1=Cc2cc(Cl)c(Oc3ccc(C(F)(F)F)cc3)cc2OC1C(F)(F)F (stereo not drawn) [Example 186]	230.9 to 232 °C
O=C(O)C1=Cc2cc(Oc3ccc(C(F)(F)F)cc3)cc(Cl)c2OC1C(F)(F)F (stereo not drawn) [Example 105]	223.7 to 226 °C
O=C(O)C1=Cc2cc(Br)ccc2OC1C(F)(F)F (stereo not drawn) [Example 13]	189.6 to 190.9 °C
O=C(O)C1=Cc2cc(Cl)ccc2SC1C(F)(F)F (stereo not drawn) [Example 65]	188.8 to 198.7 °C

Exercise: Need melting point, item COc1ccc(CN2c3ccc(Cl)cc3C=C(C(=O)O)C2C(F)(F)F)cc1 (stereo not drawn) [Example 168]
Key: 196 to 197 °C

Exercise: Same again, this time with CCc1cc2c(cc1Cl)C=C(C(=O)O)C(C(F)(F)F)O2 (stereo not drawn) [Example 27]
Key: 170.7 to 172.1 °C

Exercise: Same again, this time with O=C(O)C1=Cc2cc(Cl)c(Oc3cccc(Cl)c3)cc2OC1C(F)(F)F (stereo not drawn) [Example 196]
Key: 174.1 to 176.1 °C
